TARGET: human (hACC2) (Homo sapiens)
Sequence (O00763 whole entry): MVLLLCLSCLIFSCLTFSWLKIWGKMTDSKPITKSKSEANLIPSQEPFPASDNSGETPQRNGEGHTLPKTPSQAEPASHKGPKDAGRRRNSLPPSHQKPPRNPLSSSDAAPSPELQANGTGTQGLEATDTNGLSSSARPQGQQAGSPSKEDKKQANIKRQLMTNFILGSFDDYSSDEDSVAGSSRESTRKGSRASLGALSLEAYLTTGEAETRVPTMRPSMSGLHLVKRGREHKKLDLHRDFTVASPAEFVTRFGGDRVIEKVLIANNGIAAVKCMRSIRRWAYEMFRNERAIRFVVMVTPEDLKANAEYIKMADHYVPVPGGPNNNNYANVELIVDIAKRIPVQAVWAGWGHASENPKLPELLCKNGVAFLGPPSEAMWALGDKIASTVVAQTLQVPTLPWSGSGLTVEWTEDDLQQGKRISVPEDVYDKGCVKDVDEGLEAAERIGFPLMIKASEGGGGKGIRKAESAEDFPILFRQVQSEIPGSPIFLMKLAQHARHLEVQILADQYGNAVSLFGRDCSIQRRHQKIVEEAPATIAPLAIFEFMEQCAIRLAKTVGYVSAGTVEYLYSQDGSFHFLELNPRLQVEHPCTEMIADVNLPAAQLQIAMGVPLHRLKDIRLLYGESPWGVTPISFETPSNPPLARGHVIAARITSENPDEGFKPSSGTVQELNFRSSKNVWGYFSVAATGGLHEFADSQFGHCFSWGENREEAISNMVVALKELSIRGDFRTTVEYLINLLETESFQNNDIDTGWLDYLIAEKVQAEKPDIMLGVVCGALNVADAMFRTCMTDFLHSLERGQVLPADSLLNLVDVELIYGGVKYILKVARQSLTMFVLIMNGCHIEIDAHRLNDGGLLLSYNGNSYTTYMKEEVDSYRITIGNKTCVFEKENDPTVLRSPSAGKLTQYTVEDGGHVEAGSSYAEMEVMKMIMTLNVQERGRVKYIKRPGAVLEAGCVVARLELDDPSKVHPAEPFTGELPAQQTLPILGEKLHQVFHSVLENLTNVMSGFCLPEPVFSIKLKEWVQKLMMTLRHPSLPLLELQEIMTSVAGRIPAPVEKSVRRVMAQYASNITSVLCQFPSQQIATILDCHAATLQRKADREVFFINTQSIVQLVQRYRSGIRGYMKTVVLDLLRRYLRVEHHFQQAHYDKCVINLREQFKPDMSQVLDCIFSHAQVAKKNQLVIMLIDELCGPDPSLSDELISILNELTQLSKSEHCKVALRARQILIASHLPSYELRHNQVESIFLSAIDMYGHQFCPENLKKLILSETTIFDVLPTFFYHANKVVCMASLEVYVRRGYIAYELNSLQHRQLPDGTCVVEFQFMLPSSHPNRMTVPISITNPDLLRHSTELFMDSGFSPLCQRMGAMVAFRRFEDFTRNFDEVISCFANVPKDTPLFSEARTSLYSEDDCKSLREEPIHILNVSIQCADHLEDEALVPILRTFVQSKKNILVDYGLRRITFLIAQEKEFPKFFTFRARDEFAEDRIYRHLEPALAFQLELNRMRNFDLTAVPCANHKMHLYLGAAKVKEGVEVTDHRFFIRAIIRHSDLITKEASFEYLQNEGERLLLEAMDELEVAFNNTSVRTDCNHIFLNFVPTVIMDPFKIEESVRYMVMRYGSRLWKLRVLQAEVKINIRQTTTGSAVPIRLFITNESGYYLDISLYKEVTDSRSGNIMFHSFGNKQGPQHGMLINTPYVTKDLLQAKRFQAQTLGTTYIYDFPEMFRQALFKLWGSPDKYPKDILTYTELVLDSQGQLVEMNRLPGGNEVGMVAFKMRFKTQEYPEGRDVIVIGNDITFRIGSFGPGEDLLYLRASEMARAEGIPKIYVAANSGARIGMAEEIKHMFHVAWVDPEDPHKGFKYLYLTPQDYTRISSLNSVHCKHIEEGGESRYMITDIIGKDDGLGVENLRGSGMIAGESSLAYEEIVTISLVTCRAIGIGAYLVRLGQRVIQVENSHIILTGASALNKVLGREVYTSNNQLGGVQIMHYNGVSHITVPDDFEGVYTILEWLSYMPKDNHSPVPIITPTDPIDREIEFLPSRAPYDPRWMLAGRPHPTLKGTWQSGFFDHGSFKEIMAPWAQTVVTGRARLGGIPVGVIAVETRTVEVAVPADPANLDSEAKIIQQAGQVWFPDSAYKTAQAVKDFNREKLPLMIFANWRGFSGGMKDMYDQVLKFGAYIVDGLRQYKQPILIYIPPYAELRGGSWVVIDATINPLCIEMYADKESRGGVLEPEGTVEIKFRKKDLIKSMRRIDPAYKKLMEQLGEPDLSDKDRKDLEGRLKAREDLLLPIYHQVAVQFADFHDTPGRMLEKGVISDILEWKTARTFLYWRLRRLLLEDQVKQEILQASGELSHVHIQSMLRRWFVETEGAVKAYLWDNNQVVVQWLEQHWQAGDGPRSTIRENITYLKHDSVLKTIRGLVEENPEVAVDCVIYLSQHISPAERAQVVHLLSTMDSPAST
PROTOCOL_SUMMARY: In vitro ACC inhibition assay (ADP-Glo), hACC2
Type: biochemical
EXPERIMENTAL_PARAMETERS: Table 2b, additional results, 5 nM ACC2, 20 μM ATP, 20 μM acetyl-CoA
PROPERTY_NAME: IC50

{"MOLECULE": "COCCCO[C@@H](Cn1c(=O)n(C(C)(C)C(=O)N2CCCC2)c(=O)c2c(C)c(-n3nccn3)sc21)c1cc(F)ccc1OC", "TARGET": "human (hACC2) (Homo sapiens)", "IC50": "0.005 to 0.01 µM"}
{"MOLECULE": "COc1ccc(F)cc1[C@H](Cn1c(=O)n(CC(=O)NC(C)C)c(=O)c2c(C)c(-n3nccn3)sc21)OCCO", "TARGET": "human (hACC2) (Homo sapiens)", "IC50": "0.001 to 0.005 µM"}
{"MOLECULE": "COc1ccc(F)cc1[C@H](Cn1c(=O)n(C(C)(C)C(=O)NCC#N)c(=O)c2c(C)c(-n3nccn3)sc21)OC(C)C", "TARGET": "human (hACC2) (Homo sapiens)", "IC50": "0.01 to 0.04 µM"}
{"MOLECULE": "COCCOc1ccc(F)cc1[C@H](Cn1c(=O)n(C(C)(C)C(=O)NC(C)C)c(=O)c2c(C)c(-n3nccn3)sc21)OCCOC", "TARGET": "human (hACC2) (Homo sapiens)", "IC50": "0.01 to 0.04 µM"}
{"MOLECULE": "COc1ccc(F)cc1[C@@H](O)Cn1c(=O)n([C@H](C)C(=O)N(C)C(C)C)c(=O)c2c(C)c(-n3nccn3)sc21", "TARGET": "human (hACC2) (Homo sapiens)", "IC50": "0.005 to 0.01 µM"}

Report IC50 for each item below.
1. COc1ccc(F)cc1[C@H](Cn1c(=O)n(C(C)(C)C(N)=O)c(=O)c2c(C)c(-n3nccn3)sc21)OC[C@@H](C)C#N
2. CNC(=O)C(C)(C)n1c(=O)c2c(C)c(-n3nccn3)sc2n(C[C@H](OC(C)C)c2cc(F)ccc2OC)c1=O
3. COc1ccccc1[C@H](Cn1c(=O)n(C(C)(C)C(=O)N2CCCC2)c(=O)c2c(C)c(-n3nccn3)sc21)OC1CCOCC1
4. COCCO[C@@H](Cn1c(=O)n(C(C)(C)C(=O)NC2CCC2)c(=O)c2c(C)c(-n3nccn3)sc21)c1cc(F)ccc1OC [Compound I-134]

[out]
1. 0.001 to 0.005 µM
2. 0.005 to 0.01 µM
3. 0.005 to 0.01 µM
4. 0.005 to 0.01 µM

Report IC50 for each item below.
1. CCc1ccc(F)cc1[C@H](Cn1c(=O)n(C(C)(C)C(=O)NC(C)C)c(=O)c2c(C)c(-n3nccn3)sc21)OCC(C)(C)O (stereo in doubt)
2. Cc1c(-n2nccn2)sc2c1c(=O)n(C(C)(C)C(=O)NC(C)C)c(=O)n2C[C@H](O)c1cc(F)ccc1OCC#N
3. COc1ccccc1[C@H](Cn1c(=O)n([C@@H](C)C(=O)N(C)C(C)C)c(=O)c2c(C)c(-n3nccn3)sc21)OCCO
4. COc1ccc(F)cc1[C@@](O)(CCO)Cn1c(=O)n(C(C)(C)C(=O)NC(C)C)c(=O)c2c(C)c(-n3nccn3)sc21

[out]
1. 0.01 to 0.04 µM
2. 0.005 to 0.01 µM
3. 0.005 to 0.01 µM
4. 0.01 to 0.04 µM

###

Test system: C. krusei
PROTOCOL_SUMMARY: Antifungal Activity Assay (broth microtiter MIC), C. krusei
Assay type: cell-based, Candida krusei
EXPERIMENTAL_PARAMETERS: Pichia kudriavzevii, ATCC6258, 48 h, Table 3b (additional results); ATCC 6258; 3 replicates; MIC recorded at 48 h; read-out: MIC, C. krusei ATCC 6258
PROPERTY_NAME: MIC

Answered examples (3):
{"COMPOUND": "CCc1ccc(F)cc1[C@H](Cn1c(=O)n(C(C)(C)C(=O)NC(C)C)c(=O)c2c(C)c(-n3nccn3)sc21)OCCO [Compound I-124]", "MIC": "2.01 to 4 µg/mL"}
{"COMPOUND": "COc1ccc(F)cc1[C@H](Cn1c(=O)n([C@@H](C)C(=O)N(C)C(C)C)c(=O)c2c(C)c(-n3nccn3)sc21)OCCC#N [Compound I-188]", "MIC": "2.01 to 4 µg/mL"}
{"COMPOUND": "CCc1ccc(F)cc1[C@@H](O)Cn1c(=O)n(C(C)(C)C(N)=O)c(=O)c2c(C)c(-n3nccn3)sc21 [Compound I-202]", "MIC": "> 4.01 µg/mL"}

Report MIC for each item below.
1. COc1ccccc1[C@H](Cn1c(=O)n([C@@H](C)C(=O)N(C)C(C)C)c(=O)c2c(C)c(-n3nccn3)sc21)OCCO [Compound I-207]
2. CCc1ccc(F)cc1[C@H](Cn1c(=O)n(C(C)(C)C(=O)NC2CCC2)c(=O)c2c(C)c(-n3nccn3)sc21)OC1CCOCC1 [Compound I-232]

[out]
1: 1.01 to 2 µg/mL; 2: 1.01 to 2 µg/mL

[in] So what's the measured MIC for this one? Cc1c(-n2nccn2)sc2c1c(=O)n(C(C)(C)C(=O)NC(C)C)c(=O)n2C[C@H](OC1CCOCC1)c1cc(F)ccc1OCC#N [Compound I-116]
[out] 0.25 to 1 µg/mL

###

TARGET: UniProt:O00763
PROTOCOL_SUMMARY: In vitro ACC inhibition assay (ADP-Glo), hACC2
Assay type: biochemical
EXPERIMENTAL_PARAMETERS: Table 2b, additional results, 5 nM ACC2, 20 μM ATP, 20 μM acetyl-CoA
Provide the reported IC50 of each item.

Answered examples (4):
{"MOLECULE": "COc1ccc(F)cc1[C@H](Cn1c(=O)n(C(C)(C)C(=O)OC(C)C)c(=O)c2c(C)c(-n3nccn3)sc21)OCCO [Compound I-129]", "IC50": "1 to 5 nM"}
{"MOLECULE": "COc1ccc(F)cc1[C@H](Cn1c(=O)n(C(C)(C)C(=O)O)c(=O)c2c(C)c(-n3nccn3)sc21)OCCN1CC(C#N)C1 [Compound I-145]", "IC50": "10 to 40 nM"}
{"MOLECULE": "COc1ccc(F)cc1[C@H](Cn1c(=O)n(C(C)(C)C(=O)NC(C)C)c(=O)c2c(C)c(-n3nccn3)sc21)O[C@H]1C[C@@H](OCc2ccccc2)C1 [Compound I-233]", "IC50": "10 to 40 nM"}
{"MOLECULE": "COc1ccc(F)cc1[C@H](Cn1c(=O)n(C(C)(C)C(=O)N2CC(O)C2)c(=O)c2c(C)c(-n3nccn3)sc21)OCC(C)C [Compound I-95]", "IC50": "5 to 10 nM"}

Report IC50 for each item below.
1. COc1ccc(F)cc1[C@H](Cn1c(=O)n(C(C)(C)C(=O)NC(C)C)c(=O)c2c(C)c(-n3nccn3)sc21)OCCOC(=O)C(C)C [Compound I-250]
2. COc1ccc(F)cc1[C@H](Cn1c(=O)n(C(C)(C)C(N)=O)c(=O)c2c(C)c(-n3nccn3)sc21)OCC(C)C [Compound I-8]

[out]
1. 5 to 10 nM
2. 5 to 10 nM

###

Provide the reported IC50 of each item.
TARGET: fungal (fACC2)
EXPERIMENTAL_PARAMETERS: read-out: fACC2 (in vitro ACC2 Inhibition Assay, IC50); Table 2b, additional results; ADP-Glo, 5 nM ACC2, 20 μM ATP, 20 μM acetyl-CoA

{"MOLECULE": "CCOC(=O)c1ccccc1[C@H](Cn1c(=O)n(C(C)(C)C(=O)NC(C)C)c(=O)c2c(C)c(-n3nccn3)sc21)OCCC#N [Compound I-275]", "IC50": "0.3 to 1 nM"}
{"MOLECULE": "Cc1c(-n2nccn2)sc2c1c(=O)n(C(C)(C)C(=O)NC(C)C)c(=O)n2C[C@H](OC1CCOCC1)c1cc(F)ccc1OCCO [Compound I-111]", "IC50": "0.3 to 1 nM"}
{"MOLECULE": "COc1ccc(F)cc1[C@H](Cn1c(=O)n([C@H](C)C(=O)NC(C)C)c(=O)c2c(C)c(-n3nccn3)sc21)OCC(C)(C)O [Compound I-171]", "IC50": "1 to 5 nM"}
{"MOLECULE": "Cc1c(-n2nccn2)sc2c1c(=O)n(C(C)(C)C(=O)NC(C)C)c(=O)n2C[C@H](OC(C)C)c1cc(F)ccc1CCC#N [Compound I-234]", "IC50": "1 to 5 nM"}
{"MOLECULE": "COc1ccccc1[C@H](Cn1c(=O)n([C@@H](C)C(=O)N(C)C(C)C)c(=O)c2c(C)c(-n3nccn3)sc21)OCCC#N [Compound I-206]", "IC50": "0.3 to 1 nM"}

Report IC50 for each item below.
1. COc1ccccc1[C@@H](O)Cn1c(=O)n(C(C)(C)C(N)=O)c(=O)c2c(C)c(-n3nccn3)sc21 [Compound I-196]
2. COc1ccc(F)cc1[C@H](Cn1c(=O)n(C(C)(C)C(=O)NC(C)C)c(=O)c2c(C)c(-n3nccn3)sc21)OCCN(C)C [Compound I-76]
3. COc1ccc(F)cc1[C@H](Cn1c(=O)n(C(C)(C)C(=O)NC2CCC2)c(=O)c2c(C)c(-n3nccn3)sc21)OC1CCOCC1 [Compound I-27]
4. COCCO[C@@H](Cn1c(=O)n([C@@H](C)C(=O)NC(C)C)c(=O)c2c(C)c(-n3nccn3)sc21)c1cc(F)ccc1OC [Compound I-83]
5. COc1ccc(Br)cc1[C@H](Cn1c(=O)n(C(C)(C)C(=O)NC(C)C)c(=O)c2c(C)c(-n3nccn3)sc21)OCC(C)(C)C#N [Compound I-224]

[out]
1: 1 to 5 nM; 2: 1 to 5 nM; 3: 1 to 5 nM; 4: 1 to 5 nM; 5: 1 to 5 nM

Report IC50 for each item below.
1. COc1ccccc1[C@H](Cn1c(=O)n(C(C)(C)C(=O)O)c(=O)c2c(C)c(-n3nccn3)sc21)OC1CCOCC1 [Compound I-96]
2. COCCO[C@@H](Cn1c(=O)n(C(C)(C)C(=O)NC2CCC2)c(=O)c2c(C)c(-n3nccn3)sc21)c1cc(F)ccc1OC [Compound I-102]
3. COc1ccc(F)cc1[C@H](Cn1c(=O)n(C(C)(C)C(=O)NC(C)C)c(=O)c2c(C)c(-n3nccn3)sc21)OC[C@@H](C)C#N [Compound I-150]
4. C=CCN(C)C(=O)C(C)(C)n1c(=O)c2c(C)c(-n3nccn3)sc2n(C[C@H](OC2CCOCC2)c2cc(F)ccc2OC)c1=O [Compound I-71]

[out]
1 to 5 nM
1 to 5 nM
0.3 to 1 nM
1 to 5 nM
